Ref: patent US20210403506A1

# TGT: T1, human Chemokine like receptor 1 (human, UniProt Q99788 1-373)
# T1 sequence (looked up): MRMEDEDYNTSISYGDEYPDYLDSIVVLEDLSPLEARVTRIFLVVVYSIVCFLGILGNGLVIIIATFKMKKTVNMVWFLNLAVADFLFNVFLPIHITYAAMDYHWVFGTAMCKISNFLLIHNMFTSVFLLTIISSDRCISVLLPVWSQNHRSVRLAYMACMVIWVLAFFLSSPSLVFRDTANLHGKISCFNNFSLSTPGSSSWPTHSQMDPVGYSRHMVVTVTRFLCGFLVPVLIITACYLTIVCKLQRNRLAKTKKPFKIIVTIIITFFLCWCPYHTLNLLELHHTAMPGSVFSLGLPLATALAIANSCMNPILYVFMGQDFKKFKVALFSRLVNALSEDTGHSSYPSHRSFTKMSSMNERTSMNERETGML
# EXPERIMENT NOTES: cell-based or functional assay
Square brackets hold non-standard residues; d marks the D form. Primed or numbered codes have the meaning given here. Ends that are not written are not given here. * marks the point of attachment. dNMeY = CN[C@H](Cc1ccc(O)cc1)C(=O)O; 3‑phenylpropyl = c1ccc(CCC*)cc1; Tic = O=C(O)[C@@H]1Cc2ccccc2CN1; NMeL = CN[C@@H](CC(C)C)C(=O)O; NMeS = CN[C@@H](CO)C(=O)O; Thz′ = not defined here
The entries below come with measured EC50 (µM), activation of Tango CMKLR1-bla U2OS cells values attached.
PARAMETER: EC50 (µM), activation of Tango CMKLR1-bla U2OS cells

BINDER | REPORTED RESULT
{2,6‑dihydroxybenzoyl}-[dY]FLP[dS]QF[dA][Tic]S-OH [YW-128] | 0.02
[dNMeY]F[NMeL][Thz′][dS]QF[dA][Tic][NMeS] (reading uncertain) [YW-124] | 0.0013
{3‑phenylpropyl}-[dY]F[NMeL]P[dS]QF[dA][Tic]S-OH [YW-207] | 0.00092
